Where these numbers come from: patent US20060088471A1

target: chymotryptic-like activity of the proteasome in HT29 cells (Homo sapiens); construct: endogenous in cells; test: Cell chymotryptic activity in HT29 cells; settings: 4 hr
Readout Label: pIC50
Please note pIC50 is a logarithmic value: minus log10 of concentration in mol/L. Answer with that number alone.

Item: "CC(=O)N[C@@H](CCc1ccccc1)C(=O)N[C@@H](CC(C)C)C(=O)N[C@@H](Cc1ccccc1)C(=O)N[C@@H](CC(C)C)C(=O)[C@@]1(C)CO1" | pIC50: 8.48
